target: butyrylcholine esterase from equine serum (BChE) (Equus caballus, UniProt P81908); construct: esterase from equine serum; from tissue; host or cells: equine serum; assay: biochemical; details: IC50(AChE)/IC50(BChE)
Sequence (P81908 whole entry): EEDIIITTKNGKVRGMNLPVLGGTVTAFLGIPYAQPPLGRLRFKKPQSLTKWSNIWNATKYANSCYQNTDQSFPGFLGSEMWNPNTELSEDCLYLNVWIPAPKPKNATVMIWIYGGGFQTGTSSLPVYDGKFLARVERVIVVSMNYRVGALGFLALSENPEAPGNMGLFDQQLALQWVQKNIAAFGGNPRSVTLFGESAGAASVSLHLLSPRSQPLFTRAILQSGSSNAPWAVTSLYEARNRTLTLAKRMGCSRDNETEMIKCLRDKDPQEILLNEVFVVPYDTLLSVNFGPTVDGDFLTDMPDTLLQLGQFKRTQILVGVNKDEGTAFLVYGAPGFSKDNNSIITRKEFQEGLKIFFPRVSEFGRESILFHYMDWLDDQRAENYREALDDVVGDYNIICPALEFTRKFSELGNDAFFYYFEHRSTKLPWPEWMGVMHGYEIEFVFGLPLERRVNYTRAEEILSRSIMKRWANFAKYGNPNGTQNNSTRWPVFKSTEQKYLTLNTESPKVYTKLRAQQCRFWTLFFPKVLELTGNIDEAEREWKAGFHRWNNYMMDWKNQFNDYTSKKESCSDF
As shown below, each of these compounds has a reported BChE selectivity value.
// return a plain number; no unit text

Some solved entries appear below for comparison.
{"compound": "O=C1c2ccccc2OC[C@@]12[C@H](c1ccccc1)[C@@H](Cc1ccccc1)NC21c2ccccc2-c2nc3ccccc3nc21 (stereo partly drawn) [Compound 5a]", "BChE selectivity": 0.79}
{"compound": "O=C1c2ccccc2OC[C@@]12[C@H](c1ccc(Br)cc1)[C@@H](Cc1ccccc1)NC21c2ccccc2-c2nc3ccccc3nc21 (stereo partly drawn) [Compound 5b]", "BChE selectivity": 0.76}
{"compound": "O=C1c2ccccc2OC[C@@]12[C@H](c1ccc(F)cc1)[C@@H](Cc1ccccc1)NC21c2ccccc2-c2nc3ccccc3nc21 (stereo partly drawn) [Compound 5f]", "BChE selectivity": 0.18}

Lab book: BChE selectivity of COc1cccc([C@@H]2[C@@H](Cc3ccccc3)NC3(c4ccccc4-c4nc5ccccc5nc43)[C@]23COc2ccccc2C3=O)c1 (stereo partly drawn) [Compound 5h] noted as 0.80

# BChE selectivity of O=C1c2ccccc2OCC12C(c1ccccc1Cl)C(Cc1ccccc1)NC21c2ccccc2-c2nc3ccccc3nc21 (stereo not drawn) [Compound 5c] = 0.20

Record O=C1c2ccccc2OC[C@@]12[C@H](c1ccccc1F)[C@@H](Cc1ccccc1)NC21c2ccccc2-c2nc3ccccc3nc21 (stereo partly drawn) [Compound 5e] , field BChE selectivity: 0.26

* * *

We begin with a simple list: items and their reported IC50.
target: butyrylcholine esterase from equine serum (BChE) (Equus caballus); construct: esterase from equine serum; from tissue; host or cells: equine serum; assay: biochemical; conditions: in vitro, triplicate; read-out: BChE inhibition IC50 μM (±SD)
State the answer as a number, implicitly in µM.

{"molecule": "O=C1c2ccccc2OC[C@@]12[C@H](c1ccc(F)cc1)[C@@H](Cc1ccccc1)NC21c2ccccc2-c2nc3ccccc3nc21 (stereo partly shown)", "observed": 18.1}
{"molecule": "O=C1c2ccccc2OC[C@@]12[C@H](c1ccc(Br)cc1)[C@@H](Cc1ccccc1)NC21c2ccccc2-c2nc3ccccc3nc21 (stereo partly shown)", "observed": 24.1}
{"molecule": "O=C1c2ccccc2OC[C@@]12[C@H](c1cccc([N+](=O)[O-])c1)[C@@H](Cc1ccccc1)NC21c2ccccc2-c2nc3ccccc3nc21 (stereo partly shown)", "observed": 20.2}
{"molecule": "O=C1c2ccccc2OCC12C(c1ccccc1Cl)C(Cc1ccccc1)NC21c2ccccc2-c2nc3ccccc3nc21 (stereo not shown)", "observed": 22.2}
{"molecule": "COc1ccc([C@@H]2[C@@H](Cc3ccccc3)NC3(c4ccccc4-c4nc5ccccc5nc43)[C@]23COc2ccccc2C3=O)cc1 (stereo partly shown)", "observed": 29.2}
{"molecule": "Cc1ccc([C@@H]2[C@@H](Cc3ccccc3)NC3(c4ccccc4-c4nc5ccccc5nc43)[C@]23COc2ccccc2C3=O)cc1 (stereo partly shown)", "observed": 29.8}
{"molecule": "COc1cccc([C@@H]2[C@@H](Cc3ccccc3)NC3(c4ccccc4-c4nc5ccccc5nc43)[C@]23COc2ccccc2C3=O)c1 (stereo partly shown)", "observed": 30.1}
{"molecule": "O=C1c2ccccc2OC[C@@]12[C@H](c1ccccc1F)[C@@H](Cc1ccccc1)NC21c2ccccc2-c2nc3ccccc3nc21 (stereo partly shown)", "observed": 20.2}
{"molecule": "O=C1c2ccccc2OC[C@@]12[C@H](c1ccc(Cl)cc1)[C@@H](Cc1ccccc1)NC21c2ccccc2-c2nc3ccccc3nc21 (stereo partly shown)", "observed": 21}

# ---- query molecule ----
# molecule O=C1c2ccccc2OC[C@@]12[C@H](c1ccccc1)[C@@H](Cc1ccccc1)NC21c2ccccc2-c2nc3ccccc3nc21 (stereo partly shown) ; its IC50 = 28.1

Origin of the recorded values: paper PMC11167517
